Exercise: for every item that follows, state its recorded pKi.
# TARGET_UNDER_TEST: Wistar rat heart PBR (Rattus norvegicus, UniProt P16257)
# Construct: from tissue; host or cells: Wistar rat heart
# ASSAY_COMMENT: In vitro potency assay: competition against 0.3 nM [3H]PK-11195 binding
When answering, recall that pKi equals minus log10 of the concentration in mol/L, and write that number alone.

According to the records, this compound CCN(CC)C(=O)C1CCCc2c1c1cc(F)ccc1n2CC[18F] (stereo not drawn) displays pKi of 8.42

Record CN(Cc1ccccc1)C(=O)C1CCCc2c1c1ccccc1n2CC[18F] (stereo not drawn) . Reported pKi: 8.90

// field: pKi; key: O=C(C1CCCc2c1c1ccccc1n2CC[18F])N1CCCCC1 (stereo not drawn) ; value = 7.74

Measured values drawn from patent US9168317B2 for this set.
